compound	melting point
Nc1cccc2c1C(=O)N(C(CCC(=O)O)C(=O)O)C2=O (stereo not shown) [Example 16]	198 to 200 °C
Nc1cccc2c1CN(C(CCC(=O)O)C(=O)O)C2=O (stereo not shown) [Example 14]	183 to 185 °C
NC(=O)CCC(C(=O)O)N1C(=O)c2cccc(N)c2C1=O (stereo not shown) [Example 18]	165 to 167 °C
NC(=O)CCC(C(=O)O)N1C(=O)c2cccc([N+](=O)[O-])c2C1=O (stereo not shown) [Example 17]	182 to 184 °C

Source: patent US6380239B1
